Test system: MCF7 cell line
Assay: In vitro cytotoxic activity, MTT method, MCF7
Format: cell-based, human
Details: MCF7, Conc. 6.25 µMol
List of Toxicity % values.
value_type: Toxicity % (%)

[
  {
    "compound": "CC(=O)c1ccc(NC(=O)c2sc3nc(C)c4c(c3c2N)CC(C)(O)C(C(C)=O)C4c2ccc(N(C)C)cc2)cc1 (stereo not shown)",
    "observed_value": 96.41
  },
  {
    "compound": "CC(=O)C1C(c2ccc(N(C)C)cc2)c2c(C)nc3sc(C(=O)Nc4ccc(C)cc4)c(N)c3c2CC1(C)O (stereo not shown)",
    "observed_value": 60.13
  },
  {
    "compound": "CC(=O)C1C(c2ccc(N(C)C)cc2)c2c(C)nc3sc(C(=O)Nc4ccccc4)c(N)c3c2CC1(C)O (stereo not shown)",
    "observed_value": 94.16
  },
  {
    "compound": "CC(=O)C1C(c2ccc(N(C)C)cc2)c2c(C)nc3sc(C(=O)Nc4ccc(Cl)cc4)c(N)c3c2CC1(C)O (stereo not shown)",
    "observed_value": 96.57
  }
]
